target: Cytochrome P450 2D6 (Homo sapiens); test: Cytochrome panel assay with activity outcomes; conditions: recombinant CYP, pro-luciferin dealkylation, luminescence, p450-cyp2d6; series mostly up to 57.1 µM
The campaign covered roughly 16,000 compounds. About 2,600 (16%) were called active. Roughly 20% stayed inconclusive and do not appear here. Calls follow the shape of the dose curve; as a rule, active = well fitted curve in the direction sought with a large enough effect; inconclusive = small, poorly fitted or top-dose-only effect, or effect the other way; inactive = no such curve, though single readings can be large or run the other way. The list is a sample of the results.
Choose the fitting class; nothing outside y (active), n (inactive) is accepted.

Returns: the outcome recorded for COC(=O)N/N=C\C=C\c1ccc2c(c1)OCO2 in this assay.
y

# outcome recorded in this test, key = O=C1CC(c2cccs2)c2cc3c(cc2N1)OCO3 (stereo unspecified)
y

Test call, this compound: C=C1C(=O)O[C@@H]2[C@@H]1CC/C(C)=C\CC[C@@]1(C)O[C@H]21
n

Please indicate how the test categorized Cc1ccc(NC(=S)Nc2ccc(Br)cc2)cc1 .
n

Lab log entry: FC(F)(F)c1ccccc1-c1ccc2ncnc(NCc3cccnc3)c2c1 — outcome as called in the assay?
y

---
// outcome(item) with item = O=C(O)c1cc2cc(Cl)ccc2oc1=O
n

Could you kindly confirm the outcome this assay logged for CCOC(=O)c1cncc(C(=O)O)c1 ?
n

For this compound, state the assay outcome: CN(C)C(=O)c1ccc(-c2ccc3ncnc(Nc4ccc(F)cc4)c3c2)cc1
y

Dear all, I need the recorded test outcome for Cc1cc(=O)oc2cc(O)ccc12 , thank you.
n

Name the outcome recorded for COc1ccc(/C=N/NC(=S)NC2CCS(=O)(=O)C2)cc1OC (stereo unspecified) in the assay.
n

For COc1ccc(NC(=O)c2ncn[nH]2)cc1 , what call appears in the results of this test?
n

State the result this test recorded for Clc1ccccc1-c1cncnc1NCc1cccs1 .
y

# outcome recorded in this test, key = COc1cccc(-c2cc(C(F)(F)F)nc(N3CCCCC3)n2)c1
n

Please indicate how the test categorized CC(C)(C)C(=O)OCc1cn(-c2ccc(Cl)cc2)nn1 .
n

What classification did O=[N+]([O-])c1ccc(Cl)c(-c2ccc(/C=N/c3c(-c4ccco4)nc4ccccn34)o2)c1 end up with in this test?
n

// param item: CCCCN(C)CCCNC(=O)CCn1nc(-c2ccccc2)ccc1=O ; yields the recorded call
n

What was the test verdict on Cc1ccc(C(=O)C2CCNCC2)cc1 ?
y

Dear colleague, could you share the recorded outcome for Cc1cccc(OCC(=O)N/N=C\C=C\c2ccc3c(c2)OCO3)c1C when you have a moment?
n

# fetch the recorded call for O=C(O)[C@H]1CN(CCCP(=O)(O)O)CCN1 here
n

Could you kindly confirm the outcome this assay logged for Cc1ccc(C(=O)NC2CCCCC2)cc1 ?
n

In this assay, the call recorded for Cc1ccc(C(=O)/C=C2\NCC(C)NC2=O)cc1 (stereo unspecified) was what?
n

----------
molecular target: Cytochrome P450 2D6 (Homo sapiens) (UniProt P10635); experiment: Cytochrome panel assay with activity outcomes; conditions: recombinant CYP, pro-luciferin dealkylation, luminescence, p450-cyp2d6; series mostly up to 57.1 µM
Sequence (P10635 whole entry, looked up): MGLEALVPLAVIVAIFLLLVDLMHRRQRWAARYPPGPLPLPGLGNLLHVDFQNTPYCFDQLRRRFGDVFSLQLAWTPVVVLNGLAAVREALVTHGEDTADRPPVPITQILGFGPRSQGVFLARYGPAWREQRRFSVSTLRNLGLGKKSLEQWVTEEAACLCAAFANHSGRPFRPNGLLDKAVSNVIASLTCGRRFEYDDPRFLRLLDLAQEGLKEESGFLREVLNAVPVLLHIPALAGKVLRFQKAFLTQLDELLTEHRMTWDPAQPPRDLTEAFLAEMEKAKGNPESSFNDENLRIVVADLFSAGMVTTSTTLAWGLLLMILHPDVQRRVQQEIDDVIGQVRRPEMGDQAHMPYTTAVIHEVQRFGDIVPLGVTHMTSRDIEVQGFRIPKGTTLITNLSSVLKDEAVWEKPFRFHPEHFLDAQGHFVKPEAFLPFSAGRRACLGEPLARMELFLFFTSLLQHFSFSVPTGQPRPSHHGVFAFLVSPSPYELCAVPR
About 2,600 (16%) of roughly 16,000 compounds were called active. Inconclusive results (about 20%) are left out. Calls follow the shape of the dose curve; as a rule, active = well fitted curve in the direction sought with a large enough effect; inconclusive = small, poorly fitted or top-dose-only effect, or effect the other way; inactive = no such curve, though single readings can be large or run the other way. A selection follows.
The categories you may choose from are 1.0 (active), 0.0 (inactive)

Answer briefly: the call reported for CC(=O)Nc1ccnc(-c2cccnc2)n1 in this assay.
0.0

Assay outcome for COC(=O)C1=C(C)NC(C)=C(C(=O)OCCSc2ccccc2)[C@@H]1C : what was it?
1.0

Others:
So what was the verdict on Oc1ccccc1-c1nnc(-c2ccc(C(F)(F)F)cc2)o1 in this test?
0.0

What was the test verdict on c1ccc(CNc2ccnc(-c3cccnc3)n2)cc1 ?
1.0

Tell me the assay call for Fc1ccc(CN(C2=NCCN2)c2c(Cl)cccc2Cl)cc1 please.
1.0

Hi, do you know how CCN(CC)Cc1nc2c(c(=O)[nH]1)C1(CCCC1)Cc1ccccc1-2 came out in this test?
0.0

What did this assay record as the result for CC(C)c1ccc(CNc2cc(N3CCCC3)ccc2[N+](=O)[O-])cc1 ?
0.0
